Values from patent US12319664B2

# System: ECHCG
# measurement notes: Post-emergence herbicidal action against ECHCG
# Format: in vivo, Echinochloa crus-galli
# recorded conditions: application rate 80 g/ha, rated visually after about 3 weeks
Entries and their Herbicidal action against [%] ECHCG
State just the number; it will be interpreted in %.

[[record]]
compound = "C=CC1(C(=O)N[C@H]2C=C[C@@H](C(=O)OCC(F)(F)F)C2)CC(c2cc(F)cc(F)c2)=NO1 (some centres unmarked)"
experimental_readout = "Herbicidal action against [%] ECHCG"
value_observed = 100


Attention now shifts to the item below.
Ask: Using the record for CCOC(=O)C1=CC[C@H](NC(=O)C2(C)CC(c3cccc(F)c3)=NO2)C1 (some centres unmarked) , report its Herbicidal action against [%] ECHCG.
Reply: 80
